RUN_DESCRIPTION: protein stability index of a GFP-peptide fusion (yeast GPS) (PSI 1-4); higher = more stable; sorted into four equal gates, so the index is relative within each strain
APPLIED_CONDITIONS: san1∆
READOUT_KIND: protein stability index
Write no unit; give the number alone.

Qu. Fill in: protein stability index of FERPAVKEEKEDMETQA [RPC53] is ___
Ans. 3.2

Qu. How about DLENSPLKTELEANGRS [SSN2] ?
Ans. 3.17

Qu. How about SVDKKVDSGEERNEQER [SWI3] ?
Ans. 3.25

Qu. How about IPSLANNGNNSTSIQYH [POP6] ?
Ans. 2.47

Qu. How about EKTINDLQRTQTLSEKE [YIL149C/MLP2] ?
Ans. 2.94

Qu. How about HPSIYTQVFNILLQHKE [POP1] ?
Ans. 2.41

Qu. How about KETAPVIDTLAAGYGKI [RPL28] ?
Ans. 2.13

Qu. How about KKGESEKDASGKPSFVF [YOR098C/NUP1] ?
Ans. 2.32

Qu. How about LSVEIGVLTDISSLIGG [NUT1] ?
Ans. 1.89

Qu. How about SQDTKVICSVTGPIEPK [RRP46] ?
Ans. 1.94

Qu. How about IENMTKEKVSNGGVGVD [FAS2] ?
Ans. 3.33

Qu. How about RTQFGGGKSVGFGLVYN [RPS24A] ?
Ans. 3.27

Qu. How about GINKKKLLAISKFNNAD [RPC31] ?
Ans. 2.97

Qu. How about NKELPINHTILGKLQDV [RPN8] ?
Ans. 2.5

Qu. How about SREIAQPSSSRYNGGND [SMB1] ?
Ans. 3.22

Qu. How about RVIIQELRFPSPTPIQR [PRP28] ?
Ans. 2.41

Qu. How about AARKAANKEKRAIILER [RPL7A] ?
Ans. 1.14

Qu. How about VSANTPKSLNSNININV [SWI1] ?
Ans. 2.84

Qu. How about LKTADNRDRSFQLLEPL [PGD1] ?
Ans. 3.38

Qu. How about DDNDVPGPLPDTDSKPS [YLR018C/POM34] ?
Ans. 2.76

Qu. How about AIGCIERSDLLPYLSDT [YJR042W/NUP85] ?
Ans. 2.8

Qu. How about TRAQYLAFAKLVHSEYL [SRP68] ?
Ans. 1.47

Qu. How about KIPAVEYFGGESPVDVQ [FAS1] ?
Ans. 3.19

Qu. How about LKTNGKQNNKDFRTRYI [MTW1] ?
Ans. 2.52

Qu. How about RIARALKQEGAANKTVV [RPL18A] ?
Ans. 2.95

Qu. How about KDQYVPEVSALDLSRSN [RPS17A] ?
Ans. 2.02

Qu. How about QHQRIVAFVCSPISDSR [RPN10] ?
Ans. 1.48

Qu. How about AQFYLGKRIAYVYRASK [RPL33A] ?
Ans. 1.36

Qu. How about ERNASEVRDATLNNIFR [GRR1] ?
Ans. 3.41

Qu. How about NVPWPQNSYADKVTSQA [RPP1] ?
Ans. 1.83

Qu. How about CTFSMEPYHFISNYNTK [SRB8] ?
Ans. 1.5

Qu. How about GKKKSATAVAHVKAGKG [RPS16A] ?
Ans. 2.49

Qu. How about DSTDNENSGKEMDEKSY [LIN1] ?
Ans. 2.88

Qu. How about SSKLYQMQQQQQAQAQA [GAL11] ?
Ans. 1.9

Qu. How about PMVSVMKMDKSPTESYS [RPT2] ?
Ans. 1.11

Qu. How about DDDTFSDREMAALIASK [RPN2] ?
Ans. 1.32

Qu. How about GTPPMLHQRTHKQVYPL [DSN1] ?
Ans. 2.77

Qu. How about TFLKYFGWLLSDNSVSV [IRR1] ?
Ans. 2.24

Qu. How about NRLEKEQSVKTQNSRHY [LIN1] ?
Ans. 2.52

Qu. How about IAPRPLDLLRPVVRAPT [RPL13A] ?
Ans. 2.1

Qu. How about EALVQAFAFCIPVYCFS [YCG1] ?
Ans. 1.73

Qu. How about YNNRSLLDFNTALKQYE [RPN6] ?
Ans. 3.15

Qu. How about FNATVDETKGFDDNDSG [MED2] ?
Ans. 3.25

Qu. How about LPKVRIRTRRAAELLDK [DIS3] ?
Ans. 1.3

Qu. How about FLVRYACEPTAEKFVPI [SIR3] ?
Ans. 2.75

Qu. How about SNQLISNYAASNSMDRS [SWI1] ?
Ans. 3.27

Qu. How about PQDILSKLYLLLARVFE [SNF11] ?
Ans. 2.2

Qu. How about DKNKLLLLAAQIVSYCS [SSN2] ?
Ans. 2.05
